Parameter measured: melting point

As a guide, the following entries are already answered.
CC(C)C[C@@H](ONC(=O)c1cccc(C(=O)NO[C@H](CC(C)C)C(=O)OC(C)(C)C)c1)C(=O)OC(C)(C)C [Example 1] | 57 to 59 °C
CC(C)CNC(=O)[C@H](CC(C)C)NC(=O)c1cccc(C(=O)N[C@@H](CC(C)C)C(=O)NCC(C)C)c1 [Example 8] | 240 to 242 °C
CC(C)CNC(=O)[C@H](CC(C)C)OC(=O)c1cccc(C(=O)O[C@@H](CC(C)C)C(=O)NCC(C)C)c1 [Example 9] | 137 to 139 °C
CC(C)CNC(=O)[C@@H](CC(C)C)ONC(=O)c1cccc(C(=O)NO[C@H](CC(C)C)C(=O)NCC(C)C)c1 [Example 2] | 176 to 178 °C
CC(C)CNC(=O)[C@@H](CC(C)C)ONC(=O)c1cccc(C(=O)NO[C@H](CC(C)C)C(=O)NCC(C)C)n1 [Example 7] | 175 to 177 °C

Tell me the measured melting point of CC(C)CNC(=O)[C@@H](CC(C)C)ONC(=O)c1ccccc1 [Example 6] , please.
130 to 132 °C

Similarly, CCCCCCCCCCCCCCCCCCNC(=O)[C@@H](CC(C)C)ONC(=O)c1cccc(C(=O)NO[C@H](CC(C)C)C(=O)NCCCCCCCCCCCCCCCCCC)c1 [Example 5] ?
88 to 90 °C
